- Tested on: T1, Human neutrophil elastase (Homo sapiens, UniProt P08246)
- T1 construct: purchased CALBIOCHEM
- T1 sequence (P08246 30-267): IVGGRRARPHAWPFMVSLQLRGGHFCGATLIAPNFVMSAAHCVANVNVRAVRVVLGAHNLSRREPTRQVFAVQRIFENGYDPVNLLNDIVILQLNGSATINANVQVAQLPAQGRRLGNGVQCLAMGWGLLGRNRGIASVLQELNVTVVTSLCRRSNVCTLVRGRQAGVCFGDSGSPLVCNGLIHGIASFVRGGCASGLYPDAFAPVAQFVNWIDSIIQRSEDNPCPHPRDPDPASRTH
- Method summary: Human elastase-inhibiting activity (substrate STANA)
- Type: biochemical
- Protocol conditions: relative to control AN68
Assay endpoint: elastase-inhibiting activity, times higher than that of polypeptide AN68

INSERT INTO results (molecule, endpoint_result) VALUES
  ('R11E/Q19K/Y46E: formula 1 sequence with Glu for position 7 Arg, Lys for position 15 Gln, Glu for position 42 Tyr; SEQ. I.D. NO. 40 (protein) AACNLPIVEGPCRAFIKLWAFDAVKGKCVLFPYGGCQGNGNKFESEKECREYCGVPGDGDEELLRFSN', 'about 5 times'),
  ('R11N/Q19K/Y46D: formula 1 sequence with Asn for position 7 Arg, Lys for position 15 Gln, Asp for position 42 Tyr; SEQ. I.D. NO. 41 (protein) AACNLPIVNGPCRAFIKLWAFDAVKGKCVLFPYGGCQGNGNKFDSEKECREYCGVPGDGDEELLRFSN', 'about 5 times');
